Test system: Trichomonas vaginalis G3 trophozoites
Details: HTS, parasite screen at 1 µg/mL, replicate 2
value_type: T.vaginalis_%inb_Rep2 (%)
Answer in %, number only, no unit symbol.

molecule	readout_unit	T.vaginalis_%inb_Rep2
CC[C@H]1C[C@@H]2CC[C@@H](O2)[C@@H](C)C(=O)O[C@H](CC)C[C@H]2CC[C@H](O2)[C@H](C)C(=O)O[C@@H](C)C[C@@H]2CC[C@@H](O2)[C@@H](C)C(=O)O[C@H](CC)C[C@H]2CC[C@H](O2)[C@H](C)C(=O)O1 [Trinactin]	%	13.47
O=C(O)c1cccc2nc3ccccc3nc12 [Tubermycin B]	%	16.27

Now for a further molecule.
Fill blank: measured T.vaginalis_%inb_Rep2 of the molecule C/C=C/[C@@H]1C=C[C@@H]2C[C@H](C)CC[C@H]2[C@]1(C)/C(O)=C1/C(=O)[C@H](CO)N(C)C1=O [Equisetin] is ____. 15.65
